Tested on: P388 leukemia ip, CD2F1 mice, survival T/C
Assay: NCI In Vivo Anticancer Drug Screen. Data for tumor model P388 Leukemia (intraperitoneal) in CD2F1 (CDF1) mice
Conditions: endpoint: median survival time; dose: 50.0 mg/kg/injection; schedule: Q01DX009 (ip); vehicle: saline with Tween-80; higher = longer survival
Toxic doses and inconclusive results are not listed.
Listed here are compounds together with their documented T/C.

Worked examples, 5 compounds total:
# compound, T/C
data = [
    ("O=C(CC(=O)C(F)(F)F)c1csc2ccccc12", "109 % of control"),
    ("CCN(CC)Cc1ccc2ccccc2c1O", "103 % of control"),
    ("COc1cc2c(cc1O)C(O)CCCC2 (centres undefined)", "107 % of control"),
    ("COC1CC(C23C4CC2C3C2CC/C=C\\CCC24)CC1OC (centres undefined)", "98 % of control"),
    ("O=C1CCCCCCCCCC/C1=N/O", "99 % of control"),
]

QUERY: Record request: T/C value, item `O=C(Nc1ccc2cc(S(=O)(=O)O)ccc2c1)c1ccc(N=Nc2c(S(=O)(=O)O)cc3cc(S(=O)(=O)O)cc(NC(=O)c4ccccc4)c3c2O)cc1`
RESULT: 108 % of control

QUERY: Record request: T/C value, item `O=C(O)Cc1ccccc1C(=O)O.[Pb]`
RESULT: 104 % of control

QUERY: Record request: T/C value, item `CSC#CC(Sc1c(Cl)c(Cl)c(Cl)c(Cl)c1Cl)=C(Sc1c(Cl)c(Cl)c(Cl)c(Cl)c1Cl)Sc1c(Cl)c(Cl)c(Cl)c(Cl)c1Cl`
RESULT: 99 % of control

QUERY: Record request: T/C value, item CC(S)c1ccccc1 (centres undefined)
RESULT: 115 % of control

QUERY: Record request: T/C value, item `O=C(CC(=O)NO)NO`
RESULT: 106 % of control

QUERY: Record request: T/C value, item `CN(C)/N=N/c1ccn[nH]1`
RESULT: 122 % of control

QUERY: Record request: T/C value, item Clc1ccc(C(Cn2ccnc2)OCc2c(Cl)cccc2Cl)cc1 (centres undefined)
RESULT: 102 % of control

QUERY: Record request: T/C value, item CC1=NN(C(=O)c2ccncc2)C(=O)C1N=Nc1ccc(S(=O)(=O)Nc2nccs2)cc1 (centres undefined)
RESULT: 102 % of control

----------
Test system: P388 leukemia ip, CD2F1 mice, survival T/C
Assay: NCI In Vivo Anticancer Drug Screen. Data for tumor model P388 Leukemia (intraperitoneal) in CD2F1 (CDF1) mice
Settings: endpoint: median survival time; dose: 60.0 mg/kg/injection; schedule: Q01DX005 (ip); vehicle: saline with Tween-80; higher = longer survival
Inconclusive results and toxic doses are left out.
quantity kind: T/C

Worked examples, 8 molecules total:
# molecule, reported measurement
rows = [
    ("Cn1ccnc1CC(C)(O)c1ccccc1 (configuration not stated)", "103 % of control"),
    ("CSC1=NC=C(C#N)C2=NC(c3cccs3)NN12 (configuration not stated)", "118 % of control"),
    ("C=C1CC(O)C2C(C[Se]c3ccccc3)C(=O)O[C@@H]2C2C(=C)[C@@H](O)CC12 (some centres not stated)", "96 % of control"),
    ("Cc1ccc(NC(=O)Oc2ccc(C#N)cc2)c(C)c1", "92 % of control"),
    ("C=C(C)c1nn(-c2ccccc2)c2c1C(=O)CC(C)O2 (configuration not stated)", "98 % of control"),
    ("O/N=C(/Cc1nc2cc(Cl)c(Cl)cc2nc1C/C(=N/O)c1ccc(Cl)cc1)c1ccc(Cl)cc1", "99 % of control"),
    ("CC(=O)[C-](Cl)C(C)=O.CC(=O)[C-](Cl)C(C)=O.CC(=O)[C-](Cl)C(C)=O.[Ru+3]", "111 % of control"),
    ("O=c1[nH]c(N[N+](=O)[O-])nc(-c2ccccc2)c1Br", "98 % of control"),
]

QUERY: Record request: T/C value, item `CCOC(=O)C1=C(Nc2ccc(Cl)cc2)C(=O)N(C(C)(C)C)C1`
RESULT: 111 % of control

QUERY: Record request: T/C value, item O=C1CC23c4ccccc4N4C(=O)CC5OCC=C6CN1C2CC6C5C43 (configuration not stated)
RESULT: 101 % of control

QUERY: Record request: T/C value, item `CC(=O)Nc1ccc(/C=N/NC(=O)CC2CCCCC2)cc1`
RESULT: 96 % of control

QUERY: Record request: T/C value, item `Cc1ccc(S(=O)(=O)CC(=O)CC(=O)C(=O)Nc2ccc(Cl)cc2Cl)cc1`
RESULT: 100 % of control

QUERY: Record request: T/C value, item `CC(=O)c1ccc(N/N=[N+](/C)[O-])cc1`
RESULT: 99 % of control

QUERY: Record request: T/C value, item `Clc1ccccc1-c1nnc(-c2cccc(-c3nnc(-c4ccccc4Cl)o3)n2)o1`
RESULT: 101 % of control

QUERY: Record request: T/C value, item Cc1nc2c(cc1C#N)C(NCCO)Oc1ccccc1-2 (configuration not stated)
RESULT: 97 % of control

QUERY: Record request: T/C value, item `N#Cc1c(N)nc(N)nc1Nc1ccc(Cl)cc1`
RESULT: 113 % of control

----------
Listed here are molecules together with their documented T/C.
System: P388 leukemia ip, CD2F1 mice, survival T/C
Assay: NCI In Vivo Anticancer Drug Screen. Data for tumor model P388 Leukemia (intraperitoneal) in CD2F1 (CDF1) mice
Details: endpoint: median survival time; dose: 30.0 mg/kg/injection; schedule: Q01DX005 (ip); vehicle: Klucel (hydroxypropylcellulose) (HPC); higher = longer survival
Toxic doses and inconclusive results are not listed.

Worked examples, 4 molecules total:
# molecule, quantity kind, reported measurement
measured = [
    ("CC(c1ccc(Cl)cc1)N(CCN(C)C)c1ccccn1 (stereo not given)", "T/C", "104 % of control"),
    ("CCCCN(CCCC)C(=S)S", "T/C", "98 % of control"),
    ("Nc1ccccc1OCCCn1cc(-c2ccc(Cl)c(Cl)c2)c(N)nc1=O", "T/C", "93 % of control"),
    ("CC1(C)N=C(N)N=C(N)N1c1cc(C(F)(F)F)cc(C(F)(F)F)c1", "T/C", "105 % of control"),
]

Would you kindly look at the next entry?
QUERY: Record request: T/C value, item `CCOc1ccc(N=Nc2c(C)nn(C(N)=S)c2OCC)cc1`
RESULT: 97 % of control

----------
Listed here are compounds together with their documented T/C.
System: P388 leukemia ip, CD2F1 mice, survival T/C
Test: NCI In Vivo Anticancer Drug Screen. Data for tumor model P388 Leukemia (intraperitoneal) in CD2F1 (CDF1) mice
Conditions: endpoint: median survival time; dose: 100.0 mg/kg/injection; schedule: Q01DX009 (ip); vehicle: Klucel (hydroxypropylcellulose) (HPC); higher = longer survival
Toxic doses and inconclusive results are not listed.

# compound, target desc, T/C
records = [
    ("CCCSCCC(C)(N)C(=O)O (stereo unspecified)", "P388 leukemia ip, CD2F1 mice, survival T/C", "107 % of control"),
]

QUERY: Record request: T/C value, item `CCOC(=O)NC(=S)C1=C(N2CCOCC2)CCC1`
RESULT: 122 % of control

QUERY: Record request: T/C value, item CCCCC#CCOCC(O)CCl (stereo unspecified)
RESULT: 100 % of control

QUERY: Record request: T/C value, item `CC(C)(C)C(=O)Nc1ccc(C(C)(C)C)cc1C(O)(C(F)(F)F)C(F)(F)F`
RESULT: 92 % of control

QUERY: Record request: T/C value, item `O=C(O)c1ccc2c3c(ccc(C(=O)O)c13)CC2`
RESULT: 99 % of control

QUERY: Record request: T/C value, item `OCCCCc1nccc2c1[nH]c1ccccc12`
RESULT: 95 % of control

QUERY: Record request: T/C value, item `Cc1ccc2nc(N)nnc2c1`
RESULT: 100 % of control

QUERY: Record request: T/C value, item CCOC(=O)C1(COS(=O)(=O)c2ccc(C)cc2)C(=O)Nc2ccccc21 (stereo unspecified)
RESULT: 100 % of control

QUERY: Record request: T/C value, item CCOC(=O)c1ccc(N(CCC2CO2)S(=O)(=O)c2ccc(C)cc2)cc1 (stereo unspecified)
RESULT: 98 % of control

QUERY: Record request: T/C value, item COC(=O)C(Cc1ccccc1)NC(=O)C(Cc1c[nH]c2ccccc12)NC(=O)OC(C)(C)C (stereo unspecified)
RESULT: 87 % of control

QUERY: Record request: T/C value, item `c1ccc(-c2nc[nH]c2-c2ccccc2)cc1`
RESULT: 97 % of control

QUERY: Record request: T/C value, item `N#C/C(=C/c1ccc(Cl)cc1)c1ccc(Cl)cc1`
RESULT: 110 % of control

QUERY: Record request: T/C value, item `COc1ccc(N=Cc2ccccc2P(c2ccccc2)c2ccccc2)cc1`
RESULT: 100 % of control

QUERY: Record request: T/C value, item CCCCCCC1C(C#N)C(=O)NC(=O)C1C#N (stereo unspecified)
RESULT: 95 % of control

QUERY: Record request: T/C value, item `CCSc1ccc2c3c(cccc13)C(=O)N(CCc1ccccn1)C2=O`
RESULT: 99 % of control
